target: T1, Enriched paired helical filament (ePHF; sarkosyl insoluble tau) (human, UniProt P10636 2-758, pathological (hyperphosphorylated) tau isolated from brain; sites not stated); experiment: direct ELISA, coated antigen
T1 construct: aggregate isolated from AD frontal cortical tissue
T1 sequence (P10636 other isoform, or with tags, fused parts or gaps limits assumed): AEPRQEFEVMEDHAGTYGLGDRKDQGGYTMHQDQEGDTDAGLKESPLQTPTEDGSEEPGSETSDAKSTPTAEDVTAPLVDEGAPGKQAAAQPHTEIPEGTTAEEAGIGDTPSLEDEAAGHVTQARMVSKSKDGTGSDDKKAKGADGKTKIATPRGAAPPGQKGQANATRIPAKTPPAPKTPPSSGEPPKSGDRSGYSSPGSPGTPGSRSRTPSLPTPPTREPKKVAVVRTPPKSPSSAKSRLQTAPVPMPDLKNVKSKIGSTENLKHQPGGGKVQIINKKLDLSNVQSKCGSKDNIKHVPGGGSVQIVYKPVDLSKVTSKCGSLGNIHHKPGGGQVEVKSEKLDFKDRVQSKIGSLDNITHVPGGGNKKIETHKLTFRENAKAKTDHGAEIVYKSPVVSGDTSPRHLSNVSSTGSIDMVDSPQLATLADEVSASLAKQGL
Recorded pEC50 values for a group of binders are listed next.
The scale used: pEC50 is minus the common logarithm of the concentration in molar units.

Please review the following examples before continuing.
binder	pEC50
VY013 (antibody, V domains shown) VH: QVTLKESGPVLVKPTETLTLTCTVSGFSLINARMAVSWIRQPPGKALEWLAHIFSNDEKSYSTSLKSRLTISKDTSKSQVVLIMTNMDPVDTATYYCARIRGYSYNYGMDVWGQGTTVTVSS VL: DIVMTQSPLSLPVIPGEPASISCRSSQSLLHSNGYIYLDWYLQKPGQSPQLLIYVGSNRASGVPDRFSGSGSGTDFKLKISRVEAEDVGVYYCMQTLQIPRTFGGGTKVEIK	10.22
VY011 (antibody, V domains shown) VH: QVQLQESGPGLVKPSETLSLTCTVSGGSISNYYWTWIRQPAGKGLEWIGRVYTSGSANYNPSLKSRVTMSVDTSKNQFSLTLSSVTAADTAVYYCARDRGLYYWGQGTLVTVSS VL: DIVMTQTPLSSLVTLGQPASISCRSSQSLVHSDGNTYLSWLQQRPGQPPRLLIYKISKRFFGVPDRFSGSGAGTDFTLKINRVEAEDVGIYYCMQATQFPLTFGGGTKVEIK	10.52
VY009 (antibody, V domains shown) VH: QITLKESGPTLVKPTQTLTLTCTLSGFSLSTSEVGVGWIRQPPGKALEWLAIIYWNDHKRYSPSLKNRLTFTKDTSKNQVVLTMTNMDPVDTATYYCARRVTGEGFDPWGQGTLVTVSS VL: SYELTQPPSVSVSPGQTARITCSGDALPKQYAYWYQQKPGQAPVLVIFKDTERPSGIPERFSGSSSGTTVTLTISGVQAEDEADYYCQSADSSGSYVFGTGTKVTVL	8.76
VY003 (antibody, V domains shown) VH: EVQMVESGGGLVQPGGSLTLSCAASGFTFSSYRMNWVRQAPGKGLEWVSYISSSRSAIYYADSVKGRFTISRDNAKNSLYLQMNSLRDEDTAVYYCATLGIGYWGQGTLVTVSS VL: DIVMTQTPLSSPVTLGQPASISCRSSQSLVHSDGNTYLSWLQQRPGQPPRLLIYKISNRFSGVPDRFSGSGAGTDFTLKITRVEAEDVGIYYCMQVTQFPRTFGQGTKVEIR	10.22

Next binder, pEC50 to be filled in.
*Q* Given the entry VY014 (antibody, V domains shown) VH: EVQLVESGGGLVQPGGSLRLSCAASGFTFNNYDMHWVRQAAGKGLEWVSTIGAAGDTYYPGSVKGRFIISRENAKNSLYLQMNSLRAGDTAVYYCARAGETLEGATIGYYYGMDVWGQGTTVTVSS VL: DILMTQSPLSLPVTPGEPASISCRSSQSLLHSNGYNYLDWYLQKPGQSPQLLIYLGSNRASGVPDRFSGSGSGTDFTLKFSRVEAEDVGLYYCMQALQIPLTFGGGTKVEIK , report its measured pEC50.
*A* 8.21
